experiment: Pharmacokinetic (PK) assay in mice; assay type: in vivo; settings: mouse; CD-1 mice, Po dose 5 mg/kg, plasma; read-out: AUC0-24 h
For each record, write down the corresponding AUC(0-t).

Request the reported AUC(0-t) associated with C[C@@H]1COCCN1c1cc(N2CC3CCC(C2)O3)nc2c1cnn2-c1cc[nH]n1 [Example 5]
9330 ng·h/mL

Again, but for C[C@@H]1COCCN1c1cc(N2CC3CCC(C2)O3)nn2c(-c3cc[nH]n3)ncc12 [Example 3]
6460 ng·h/mL

Again, but for C[C@@H]1COCCN1c1cc(N2CC3CCC(C2)O3)nc2c(-c3cc[nH]n3)cnn12 [Example 1]
3440 ng·h/mL

---

For each record, write down the corresponding C0.
test: Pharmacokinetic (PK) assay in mice; type: in vivo; conditions: mouse; CD-1 mice, IV dose 1 mg/kg, plasma
Provide the reading as a plain figure in ng/mL.

Request the reported C0 associated with C[C@@H]1COCCN1c1cc(N2CC3CCC(C2)O3)nc2c1cnn2-c1cc[nH]n1
2180

Again, but for C[C@@H]1COCCN1c1cc(N2CC3CCC(C2)O3)nc2c(-c3cc[nH]n3)cnn12
823

Again, but for C[C@@H]1COCCN1c1cc(N2CC3CCC(C2)O3)nn2c(-c3cc[nH]n3)ncc12
2860

---

assay: Metabolic stability in mouse liver microsomes; type: in vitro ADME, CD-1 mice; conditions: CD-1, 1 μM compound
assay_readout: half-life at 1 μM (min)
Provide the reading as a plain figure in min.

Request the reported half-life at 1 μM associated with c1cc(-c2ncc3c(N4CC5CCC(C4)O5)cc(N4CC5CCC(C4)O5)nn23)n[nH]1
33.6

Again, but for C[C@@H]1COCCN1c1cc(N2CC3CCC(C2)O3)nc2c(-c3cc[nH]n3)cnn12
58.3

Again, but for C[C@@H]1COCCN1c1cc(N2CC3CCC(C2)O3)nc2c1cnn2-c1cc[nH]n1
67.5

---

assay: Pharmacokinetic (PK) assay in mice; assay type: in vivo; details: mouse, plasma; CD-1 mice, Po dose 5 mg/kg vs IV dose 1 mg/kg
For each record, write down the corresponding bioavailability.
Provide the reading as a plain figure in %.

Request the reported bioavailability associated with C[C@@H]1COCCN1c1cc(N2CC3CCC(C2)O3)nc2c(-c3cc[nH]n3)cnn12
75.6

Again, but for C[C@@H]1COCCN1c1cc(N2CC3CCC(C2)O3)nn2c(-c3cc[nH]n3)ncc12
77.5

Again, but for C[C@@H]1COCCN1c1cc(N2CC3CCC(C2)O3)nc2c1cnn2-c1cc[nH]n1
69

---

For each record, write down the corresponding microsomal CLint at 1 μM.
test: Metabolic stability in mouse liver microsomes; format: in vitro ADME, CD-1 mice; conditions: CD-1, read-out: CLint(mic)
Please provide the amount together with its unit, number first.

Request the reported microsomal CLint at 1 μM associated with C[C@@H]1COCCN1c1cc(N2CC3CCC(C2)O3)nc2c1cnn2-c1cc[nH]n1
20.5 µL/min/mg

Again, but for C[C@@H]1COCCN1c1cc(N2CC3CCC(C2)O3)nc2c(-c3cc[nH]n3)cnn12
23.8 µL/min/mg

Again, but for c1cc(-c2ncc3c(N4CC5CCC(C4)O5)cc(N4CC5CCC(C4)O5)nn23)n[nH]1
41.3 µL/min/mg

---

For each record, write down the corresponding Cmax.
assay: Pharmacokinetic (PK) assay in mice; format: in vivo; conditions: mouse; CD-1 mice, Po dose 5 mg/kg, plasma

Request the reported Cmax associated with C[C@@H]1COCCN1c1cc(N2CC3CCC(C2)O3)nc2c(-c3cc[nH]n3)cnn12
1080 ng/mL

Again, but for C[C@@H]1COCCN1c1cc(N2CC3CCC(C2)O3)nn2c(-c3cc[nH]n3)ncc12
3150 ng/mL

Again, but for C[C@@H]1COCCN1c1cc(N2CC3CCC(C2)O3)nc2c1cnn2-c1cc[nH]n1
3020 ng/mL

---

For each record, write down the corresponding half-life.
experiment: Pharmacokinetic (PK) assay in mice; assay type: in vivo; settings: mouse, plasma; CD-1 mice, Po dose 5 mg/kg
Provide the reading as a plain figure in h.

Request the reported half-life associated with C[C@@H]1COCCN1c1cc(N2CC3CCC(C2)O3)nc2c1cnn2-c1cc[nH]n1
2.58

Again, but for C[C@@H]1COCCN1c1cc(N2CC3CCC(C2)O3)nn2c(-c3cc[nH]n3)ncc12
3.99

Again, but for C[C@@H]1COCCN1c1cc(N2CC3CCC(C2)O3)nc2c(-c3cc[nH]n3)cnn12
2.57

---

For each record, write down the corresponding AUC(0-t).
Experiment: Pharmacokinetic (PK) assay in mice
Assay type: in vivo
Details: mouse; CD-1 mice, IV dose 1 mg/kg, plasma; read-out: AUC0-24 h
Method: The PK of each compound was determined as follows: 6 CD-1 mice (obtained from Shanghai Lingchang Biotechnology Co., Ltd.) were divided into two groups, 3 mice in each group. […] Compound concentrations in plasma were determined by UPLC-MS/MS method, and the pharmacokinetic parameters were calculated by Phoenix WinNolin 6.4 pharmacokinetic software on the obtained data.

Request the reported AUC(0-t) associated with C[C@@H]1COCCN1c1cc(N2CC3CCC(C2)O3)nc2c1cnn2-c1cc[nH]n1
2700 ng·h/mL

Again, but for C[C@@H]1COCCN1c1cc(N2CC3CCC(C2)O3)nc2c(-c3cc[nH]n3)cnn12
925 ng·h/mL

Again, but for C[C@@H]1COCCN1c1cc(N2CC3CCC(C2)O3)nn2c(-c3cc[nH]n3)ncc12
1650 ng·h/mL

---

assay: Pharmacokinetic (PK) assay in mice; type: in vivo; settings: mouse, plasma; CD-1 mice, IV dose 1 mg/kg; read-out: Vss
assay_readout: Vd (L/kg)
Provide the reading as a plain figure in L/kg.

Request the reported Vd associated with C[C@@H]1COCCN1c1cc(N2CC3CCC(C2)O3)nc2c1cnn2-c1cc[nH]n1 [Example 5]
0.75

Again, but for C[C@@H]1COCCN1c1cc(N2CC3CCC(C2)O3)nn2c(-c3cc[nH]n3)ncc12 [Example 3]
1.03

Again, but for C[C@@H]1COCCN1c1cc(N2CC3CCC(C2)O3)nc2c(-c3cc[nH]n3)cnn12 [Example 1]
1.68

---

molecular target: ATR (Homo sapiens (Human))
pIC50: −log10 of the molar value. Structures can show the parent of a compound that is named as a salt.
Label class 1 when pIC50 is at or above 8; otherwise label class 0.

Item Cn1nccc1-c1cc(N2CC3CCC(C2)O3)nc2c(-c3cc[nH]n3)cnn12 with pIC50 of 8 or above?
class 0

Again, but for C[C@@H]1COCCN1c1cc(N2CC3CCC(C2)O3)nc2c(-c3cc[nH]n3)cnn12
class 0

Again, but for C[C@@H]1COCCN1c1cc(N2CC3CCC(C2)O3)nn2c(-c3cc[nH]n3)cnc12
class 0

Again, but for OC1(c2cc(N3C[C@H]4CC[C@@H](C3)O4)nc3c(-c4ccn[nH]4)cnn23)CCOCC1
class 0

Again, but for C[C@@H]1CN(C)CCN1c1cc(N2CC3CCC(C2)O3)nn2c(-c3cc[nH]n3)ncc12 [Example 11, formate]
class 0

Again, but for c1cc(-c2ncc3c(N4C5CCC4COC5)cc(N4CC5CCC(C4)O5)nn23)n[nH]1
class 0

Again, but for CC(=O)N1CCN(c2cc(N3C[C@H]4CC[C@@H](C3)O4)nn3c(-c4cc[nH]n4)ncc23)[C@H](C)C1
class 1

Again, but for c1cc(-c2ncc3c(N4CCNCC4)cc(N4CC5CCC(C4)O5)nn23)n[nH]1 [Example 10, formate]
class 0

Again, but for C[C@@H]1COCCN1c1c(Cl)c(N2CC3CCC(C2)O3)nn2c(-c3cc[nH]n3)ncc12
class 0

Again, but for C[C@@H]1CNCCN1c1cc(N2CC3CCC(C2)O3)nn2c(-c3cc[nH]n3)ncc12 [Example 9, formate]
class 0

Again, but for CC1(C)COCCN1c1cc(N2CC3CCC(C2)O3)nn2c(-c3cc[nH]n3)ncc12
class 1

---

Quick note: these are pIC50 numbers for system: ATR (Homo sapiens (Human), UniProt Q13535)
Sequence (Q13535 whole entry): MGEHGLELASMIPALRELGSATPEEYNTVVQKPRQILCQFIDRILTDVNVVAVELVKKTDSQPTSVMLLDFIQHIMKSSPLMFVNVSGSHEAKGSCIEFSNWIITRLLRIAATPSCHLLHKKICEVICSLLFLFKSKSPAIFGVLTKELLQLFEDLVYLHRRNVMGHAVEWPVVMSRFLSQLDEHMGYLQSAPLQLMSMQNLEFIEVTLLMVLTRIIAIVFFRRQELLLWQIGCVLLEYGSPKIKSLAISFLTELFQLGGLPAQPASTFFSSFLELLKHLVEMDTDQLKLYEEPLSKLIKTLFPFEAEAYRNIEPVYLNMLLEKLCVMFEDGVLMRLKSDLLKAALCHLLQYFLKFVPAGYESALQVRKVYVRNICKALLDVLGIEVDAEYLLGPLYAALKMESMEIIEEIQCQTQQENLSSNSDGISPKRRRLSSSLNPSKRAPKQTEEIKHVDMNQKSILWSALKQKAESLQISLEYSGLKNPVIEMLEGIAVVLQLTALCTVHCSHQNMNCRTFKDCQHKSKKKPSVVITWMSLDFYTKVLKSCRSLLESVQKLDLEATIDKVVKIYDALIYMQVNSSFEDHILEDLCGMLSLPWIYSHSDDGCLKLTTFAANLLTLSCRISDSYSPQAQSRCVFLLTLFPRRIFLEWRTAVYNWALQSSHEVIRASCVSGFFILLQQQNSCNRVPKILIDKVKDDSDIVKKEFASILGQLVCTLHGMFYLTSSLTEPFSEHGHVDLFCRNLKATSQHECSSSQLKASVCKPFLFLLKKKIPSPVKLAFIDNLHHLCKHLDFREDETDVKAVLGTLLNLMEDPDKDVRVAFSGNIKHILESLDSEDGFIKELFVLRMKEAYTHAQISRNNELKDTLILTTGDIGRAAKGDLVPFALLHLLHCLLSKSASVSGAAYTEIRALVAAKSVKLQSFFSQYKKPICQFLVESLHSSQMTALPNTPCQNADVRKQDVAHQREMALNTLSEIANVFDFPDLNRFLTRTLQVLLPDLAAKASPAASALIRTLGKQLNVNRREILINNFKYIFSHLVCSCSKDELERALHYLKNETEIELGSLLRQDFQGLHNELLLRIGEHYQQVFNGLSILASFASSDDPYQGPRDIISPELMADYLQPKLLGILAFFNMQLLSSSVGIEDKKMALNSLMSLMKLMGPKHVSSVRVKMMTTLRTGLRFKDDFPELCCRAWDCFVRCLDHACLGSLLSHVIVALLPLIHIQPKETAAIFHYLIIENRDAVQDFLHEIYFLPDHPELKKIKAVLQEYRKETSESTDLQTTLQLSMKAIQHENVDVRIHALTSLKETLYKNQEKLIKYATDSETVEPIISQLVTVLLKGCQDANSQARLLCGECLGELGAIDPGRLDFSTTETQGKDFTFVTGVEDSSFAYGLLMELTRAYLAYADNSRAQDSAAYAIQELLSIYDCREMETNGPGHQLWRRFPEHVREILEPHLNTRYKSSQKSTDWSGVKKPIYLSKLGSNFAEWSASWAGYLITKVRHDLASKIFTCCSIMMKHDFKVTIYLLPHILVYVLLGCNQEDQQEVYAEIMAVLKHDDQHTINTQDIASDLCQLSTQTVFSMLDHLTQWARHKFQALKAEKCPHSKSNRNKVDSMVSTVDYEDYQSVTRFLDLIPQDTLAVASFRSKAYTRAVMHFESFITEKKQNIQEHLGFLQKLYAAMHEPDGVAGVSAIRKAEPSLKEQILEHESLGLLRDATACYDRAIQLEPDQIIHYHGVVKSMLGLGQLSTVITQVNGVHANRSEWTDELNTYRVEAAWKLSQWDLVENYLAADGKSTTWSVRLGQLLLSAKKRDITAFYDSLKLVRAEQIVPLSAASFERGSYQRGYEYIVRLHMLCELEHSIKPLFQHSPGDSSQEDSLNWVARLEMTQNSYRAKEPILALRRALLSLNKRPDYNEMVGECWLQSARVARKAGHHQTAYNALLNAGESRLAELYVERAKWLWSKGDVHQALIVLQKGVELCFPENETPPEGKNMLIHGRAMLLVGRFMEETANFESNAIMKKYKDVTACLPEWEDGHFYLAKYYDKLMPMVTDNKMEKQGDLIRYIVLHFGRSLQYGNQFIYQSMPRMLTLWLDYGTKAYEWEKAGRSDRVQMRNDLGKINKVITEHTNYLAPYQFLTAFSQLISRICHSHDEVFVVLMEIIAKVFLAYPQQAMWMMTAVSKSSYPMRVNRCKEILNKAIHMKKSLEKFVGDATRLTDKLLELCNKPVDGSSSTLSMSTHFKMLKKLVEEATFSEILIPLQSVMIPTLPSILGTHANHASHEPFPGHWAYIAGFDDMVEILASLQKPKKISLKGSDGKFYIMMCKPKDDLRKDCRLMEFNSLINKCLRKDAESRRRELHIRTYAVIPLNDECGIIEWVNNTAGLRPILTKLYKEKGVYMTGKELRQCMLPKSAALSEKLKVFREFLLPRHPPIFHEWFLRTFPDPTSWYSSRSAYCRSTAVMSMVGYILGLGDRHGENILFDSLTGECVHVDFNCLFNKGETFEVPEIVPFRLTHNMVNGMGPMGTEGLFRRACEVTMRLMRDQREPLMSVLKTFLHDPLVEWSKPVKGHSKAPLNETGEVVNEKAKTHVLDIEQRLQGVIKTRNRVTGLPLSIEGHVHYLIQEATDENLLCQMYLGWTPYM
Sequence (Q8WXE1 whole entry partner): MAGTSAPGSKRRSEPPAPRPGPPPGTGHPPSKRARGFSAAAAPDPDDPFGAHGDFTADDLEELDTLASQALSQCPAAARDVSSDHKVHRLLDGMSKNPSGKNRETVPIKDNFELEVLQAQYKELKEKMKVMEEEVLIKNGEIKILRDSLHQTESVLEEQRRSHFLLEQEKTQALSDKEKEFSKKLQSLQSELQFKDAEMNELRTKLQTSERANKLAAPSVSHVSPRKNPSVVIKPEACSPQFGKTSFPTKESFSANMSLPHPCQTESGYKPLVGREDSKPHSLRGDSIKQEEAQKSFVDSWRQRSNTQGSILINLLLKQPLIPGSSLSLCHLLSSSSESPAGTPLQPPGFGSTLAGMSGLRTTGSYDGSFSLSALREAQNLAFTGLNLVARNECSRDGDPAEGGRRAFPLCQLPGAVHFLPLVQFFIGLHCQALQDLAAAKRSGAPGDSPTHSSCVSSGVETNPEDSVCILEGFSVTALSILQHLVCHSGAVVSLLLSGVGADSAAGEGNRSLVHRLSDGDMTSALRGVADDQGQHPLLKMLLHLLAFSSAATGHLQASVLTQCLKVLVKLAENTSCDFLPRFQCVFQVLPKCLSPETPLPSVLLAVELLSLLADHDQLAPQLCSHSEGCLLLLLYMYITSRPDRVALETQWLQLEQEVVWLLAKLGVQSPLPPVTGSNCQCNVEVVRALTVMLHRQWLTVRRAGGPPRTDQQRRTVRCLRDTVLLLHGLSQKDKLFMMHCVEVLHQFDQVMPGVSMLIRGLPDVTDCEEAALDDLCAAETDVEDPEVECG
Keep in mind that pIC50 stands for -log10 of concentration in molar terms.

Request the reported pIC50 associated with CC1(C)COCCN1c1cc(N2CC3CCC(C2)O3)nc2c(-c3ccn[nH]3)cnn12
8.21

Again, but for FC1(F)CCN(c2cc(N3CC4CCC(C3)O4)nn3c(-c4cc[nH]n4)ncc23)CC1
8.10

Again, but for c1cc(-n2ncc3c(N4CC5CCC(C4)O5)cc(N4CC5CCC(C4)O5)nc32)n[nH]1
7.77
